test: Cytotoxicity plates without OC43 virus in HeLa cells; type: cell-based; settings: human, HeLa cells (uninfected), numeric bound, unit inferred
measuredQuantity: CC50 at 6 days

compound: CC(C)(C)c1csc(C(=O)N2CCC3(CC3)C[C@H]2C(=O)N[C@@H](C[C@@H]2CCNC2=O)C(=O)C(=O)NC2CC2)n1 [Compound 39]
measuredQuantity: CC50 at 6 days
result: > 100 µM

compound: COc1ccc(-c2csc(C(=O)N3CCC4(CC4)C[C@H]3C(=O)N[C@@H](C[C@@H]3CCNC3=O)C(=O)C(=O)NC3CC3)n2)cc1 [Compound 37]
measuredQuantity: CC50 at 6 days
result: > 100 µM

compound: CC(C)(C)[C@H](NC(=O)C(F)(F)F)C(=O)N1[C@H]2C[C@@H]([C@H]1C(=O)N[C@H](C#N)C[C@@H]1CCNC1=O)C1(CC1)C2 [Compound 50]
measuredQuantity: CC50 at 6 days
result: > 100 µM

====

molecular target: SARS-Cov-2 3CLpro (Severe acute respiratory syndrome coronavirus 2, UniProt P0DTD1); construct: SARS-Cov-2 3CLpro and HRV3C Duplex Assay; assay: SARS-Cov-2 3CLpro and HRV3C duplex assay (SAMDI-MS): 3CLpro; type: biochemical; conditions: 3CLpro, duplex assay, 30 mins preincubation; class symbols; read-out: SARS-Cov-2 IC50
Collected IC50 values appear next to each entry.
measuredQuantity: IC50

mol: Cn1nc(C(=O)N2CCC3(CC3)C[C@H]2C(=O)N[C@@H](C[C@@H]2CCNC2=O)C(=O)C(=O)NC2CC2)c2ccccc21
measuredQuantity: IC50
result: 20 to 200 nM
--
mol: CC(C)(C)c1csc(C(=O)N2CCC3(CC3)C[C@H]2C(=O)N[C@@H](C[C@@H]2CCNC2=O)C(=O)C(=O)NC2CC2)n1
measuredQuantity: IC50
result: 200 to 2000 nM
--
mol: O=C(NC1CC1)C(=O)[C@H](C[C@@H]1CCNC1=O)NC(=O)[C@@H]1CC2(CCN1C(=O)c1csc(-c3ccccc3)n1)CC2
measuredQuantity: IC50
result: 200 to 2000 nM

====

Collected CC50 at 6 days values appear next to each entry.
assay: Cytotoxicity plates without OC43 virus in HeLa cells; format: cell-based; details: human, HeLa cells (uninfected), class symbols
measuredQuantity: CC50 at 6 days

compound: Cn1nc(C(=O)N2CCC3(CC3)C[C@H]2C(=O)NC(C[C@@H]2CCNC2=O)C(=O)C(=O)NC2CC2)cc1-c1ccccc1 (some centres unmarked) [Compound 17]
measuredQuantity: CC50 at 6 days
result: ≥ 100 µM

compound: COc1ccc2cc(C(=O)N3CCC4(CC4)C[C@H]3C(=O)N[C@@H](C[C@@H]3CCNC3=O)C(=O)C(=O)NC3CC3)n(C)c2c1 [Compound 29]
measuredQuantity: CC50 at 6 days
result: ≥ 100 µM

compound: O=C(NC1CC1)C(=O)[C@H](C[C@@H]1CCNC1=O)NC(=O)[C@@H]1CC2(CCN1C(=O)c1cc3ccccn3n1)CC2 [Example 9]
measuredQuantity: CC50 at 6 days
result: ≥ 100 µM

compound: O=C(NC1CC1)C(=O)C(C[C@@H]1CCNC1=O)NC(=O)[C@@H]1CC2(CCN1C(=O)c1cc3ccccc3n1-c1ccccc1)CC2 (some centres unmarked) [Compound 22]
measuredQuantity: CC50 at 6 days
result: 10 to 100 µM

compound: O=C(NC1CC1)C(=O)[C@H](C[C@@H]1CCNC1=O)NC(=O)[C@@H]1CC2(CCN1C(=O)c1nc(-c3ccc(Cl)cc3)cs1)CC2 [Compound 44]
measuredQuantity: CC50 at 6 days
result: 10 to 100 µM

compound: O=C(NC1CC1)C(=O)[C@H](C[C@@H]1CCNC1=O)NC(=O)[C@@H]1CC2(CCN1C(=O)c1csc3ccccc13)CC2 [Compound 28]
measuredQuantity: CC50 at 6 days
result: ≥ 100 µM

compound: O=C(NC1CC1)C(=O)[C@H](C[C@@H]1CCNC1=O)NC(=O)[C@@H]1CC2(CCN1C(=O)C1Cc3ccccc3C1)CC2 [Example 6]
measuredQuantity: CC50 at 6 days
result: ≥ 100 µM

compound: O=C(NC1CC1)C(=O)[C@H](C[C@@H]1CCNC1=O)NC(=O)[C@@H]1CC2(CCN1C(=O)c1ncc(-c3ccccc3)s1)CC2 [Example 1]
measuredQuantity: CC50 at 6 days
result: 10 to 100 µM

compound: Cc1ccc2cc(C(=O)N3CCC4(CC4)C[C@H]3C(=O)N[C@@H](C[C@@H]3CCNC3=O)C(=O)C(=O)NC3CC3)sc2c1 [Compound 15]
measuredQuantity: CC50 at 6 days
result: ≥ 100 µM

compound: Cn1nc2ccccc2c1C(=O)N1CCC2(CC2)C[C@H]1C(=O)N[C@@H](C[C@@H]1CCNC1=O)C(=O)C(=O)NC1CC1 [Example 7]
measuredQuantity: CC50 at 6 days
result: ≥ 100 µM

compound: O=C(NC1CC1)C(=O)C(C[C@@H]1CCNC1=O)NC(=O)[C@@H]1[C@@H]2C[C@@H](CC23CC3)N1C(=O)c1nc(-c2ccccc2)cs1 (some centres unmarked) [Compound 26]
measuredQuantity: CC50 at 6 days
result: ≥ 100 µM
